protocol: Solubility test (shaker 25° C., 24 hours, filtrate by HPLC)
Type: physicochemical
setup_conditions: glycine-hydrochloric acid buffer, 25 °C, pH 2, aqueous buffer, thermodynamic from solid, pH 2.0 glycine-hydrochloric acid buffer solution, 24 hours
experimental_endpoint: solubility at 24 h

Sample COc1cc(C(=O)NC2CCN(C)CC2)c(F)cc1Nc1ncc(C(F)(F)F)c(Oc2cccc3c2C(=O)N(C)C3)n1 [Amorphous form of the free base] — what was its solubility at 24 h?
> 10000 µg/mL

----------
protocol: Solubility test (shaker 25° C., 24 hours, filtrate by HPLC)
Format: physicochemical
setup_conditions: Deionized water, 25° C., 24 hours
Counter-ions that a name gives are not always drawn.
experimental_endpoint: Solubility (µg/mL)
Dear colleague, please return just the value in µg/mL, with no unit written.

Here are 2 molecules together with their reported answers.
molecule	Solubility, µg/mL
COc1cc(C(=O)NC2CCN(C)CC2)c(F)cc1Nc1ncc(C(F)(F)F)c(Oc2cccc3c2C(=O)N(C)C3)n1 [Amorphous form of the free base]	1070
COc1cc(C(=O)NC2CCN(C)CC2)c(F)cc1Nc1ncc(C(F)(F)F)c(Oc2cccc3c2C(=O)N(C)C3)n1 [Crystalline form I of the tartrate salt]	2590

Find the recorded Solubility belonging to COc1cc(C(=O)NC2CCN(C)CC2)c(F)cc1Nc1ncc(C(F)(F)F)c(Oc2cccc3c2C(=O)N(C)C3)n1 [Crystalline form A of the free base] and report it.
33

----------
protocol: Solubility test (shaker 25° C., 24 hours, filtrate by HPLC)
Format: physicochemical
setup_conditions: pH 6.8 Na2HPO4-citric acid buffer solution, 25° C., 24 hours
experimental_endpoint: Solubility (µg/mL)
# unit: µg/mL | format: bare number

molecule	Solubility [µg/mL]
COc1cc(C(=O)NC2CCN(C)CC2)c(F)cc1Nc1ncc(C(F)(F)F)c(Oc2cccc3c2C(=O)N(C)C3)n1 [Amorphous form of the free base]	50

For the next question, use this molecule.
Consider the molecule shown here: COc1cc(C(=O)NC2CCN(C)CC2)c(F)cc1Nc1ncc(C(F)(F)F)c(Oc2cccc3c2C(=O)N(C)C3)n1 [Crystalline form A of the free base] What is its recorded Solubility?
1060
